- Measured Target: T1, HLA-A*03:01 (human)
- T1 construct: also called peptide-receptive MHC molecules
- Experiment Notes: UV-exchange b2m ELISA; exchange-yield grade
Measured Parameter: peptide exchange yield

Some binders with known peptide exchange yield results, for comparison:
- Binder: "HTFGLFYQR"
  peptide exchange yield: "20 to 50%"
- Binder: "SVLTSSLVK"
  peptide exchange yield: "20 to 50%"
- Binder: "GTVNPTVGK"
  peptide exchange yield: "20 to 50%"

Okay, now this binder:
Incoming: Please report the recorded peptide exchange yield for VTADHSHVF .
Outgoing: 10 to 20%
